Test: Clearance in Sprague-Dawley rat at 2 mg/kg, iv by LC-MS/MS analysis
Format: ADME, organism-based
Settings: in vivo
attribute measured: clearance (mL/min/kg)
Just the number in mL/min/kg, nothing appended.

Just so you know, measured clearance for `C[C@]12CCCN1CC1=NNC(=O)c3cc(F)cc4[nH]c2c1c34` came out at 22.7

###

Assay: Unbound fraction in mouse plasma
Type: ADME, cell-free
attribute measured: fraction unbound
Write no unit; give the number alone.

Just so you know, measured fraction unbound for `C[C@]12CCCN1CC1=NNC(=O)c3cc(F)cc4[nH]c2c1c34` came out at 0.15

###

Assay: Half life in Beagle dog at 2 mg/kg, po by LC-MS/MS analysis
Type: ADME, organism-based, Canis lupus familiaris
Settings: in vivo
attribute measured: half-life (h)
Just the number in h, nothing appended.

Just so you know, measured half-life for `C[C@]12CCCN1CC1=NNC(=O)c3cc(F)cc4[nH]c2c1c34` came out at 3.62
